assay: Clearance in rat at 1 mg/kg, po or 0.1 mg/kg, iv; assay type: ADME, organism-based; conditions: in vivo
Below, each entry is listed alongside its reported clearance.
measurement-name: clearance (mL/min/kg)

compound="CCn1c(=O)c2cc(NC(=O)CC(C)CC(=O)Nc3ccc(C#N)c(Cl)c3)ccc2n(CC2CC2)c1=O (racemic)" numeric_result=28.4
compound="CCn1c(=O)n(CC2CC2)c(=O)c2cc(NC(=O)CC(C)CC(=O)Nc3ccc(C#N)c(Cl)c3)ccc21 (racemic)" numeric_result=44
compound="CCn1c(=O)c2cc(NC(=O)CC(C)CC(=O)Nc3ccc(C#N)c(Cl)c3)ccc2n(CC)c1=O (racemic)" numeric_result=26.8
compound="CC(CC(=O)Nc1ccc(C#N)c(Cl)c1)CC(=O)Nc1ccc2c(c1)c(=O)n(CC1CC1)c(=O)n2CC1CC1 (racemic)" numeric_result=11.2

Just for reference, ChEMBL document CHEMBL4219064 is where these values come from.
